TEST TARGET: MMP-11 (stromelysin-3, mST3) (Mus musculus, UniProt Q02853)
Sequence (Q02853 102-492): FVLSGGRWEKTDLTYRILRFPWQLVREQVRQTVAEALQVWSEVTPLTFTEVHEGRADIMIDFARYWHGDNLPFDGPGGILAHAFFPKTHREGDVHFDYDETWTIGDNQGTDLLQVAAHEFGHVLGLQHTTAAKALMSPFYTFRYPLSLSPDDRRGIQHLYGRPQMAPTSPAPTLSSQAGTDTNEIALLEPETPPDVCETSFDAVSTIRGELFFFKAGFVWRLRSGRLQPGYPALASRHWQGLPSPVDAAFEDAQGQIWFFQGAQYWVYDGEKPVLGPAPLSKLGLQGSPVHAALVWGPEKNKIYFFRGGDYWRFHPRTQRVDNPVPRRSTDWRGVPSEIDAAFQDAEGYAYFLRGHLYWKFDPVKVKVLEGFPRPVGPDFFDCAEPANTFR
EXPERIMENTAL DETAILS: Ki determination with fluorogenic synthetic substrates, recombinant MMP-11
CONDITION NOTES: Tris/50 mM HCl buffer, pH 6.8, 10 mM CaCl2, 25° C.; read-out: affinity constant Ki, MMP-11 mST3
MEASUREMENT LABEL: Ki (nM)

P = NC(=O)C(Cc1c[nH]c2ccccc12)NC(=O)C(CCCc1ccccc1)CP(=O)(O)C(Cc1ccccc1)NC(=O)c1cc2ccccc2[nH]1 (stereo not drawn) [Compound 30]
Q = NC(=O)C(Cc1c[nH]c2ccccc12)NC(=O)C(CCc1ccccc1)CP(=O)(O)C(Cc1ccccc1)NC(=O)OCc1ccccc1 (stereo not drawn) [Compound 14]
Request: Consider entries P and Q . Which has the numerically lower Ki? Give the label of your selection.
Response: P
(P: 1.5 nM, Q: 8.8 nM)

Origin of measurements: patent US6630501B1
